Tested on: IGROV-1
Test: NCI tumour cell line growth inhibition, 48 h
The source made the active and inactive calls. Cut-off read from the data, not from the text of the source: active = GI50 up to about 1.1 µM and inactive = higher.
Outcome field: choose from YES for active, NO for inactive

Hi team, can someone confirm the assay call for Cc1ccc(O)c(C(c2cc(C)ccc2O)c2cc([N+](=O)[O-])ccc2O)c1 ?
NO

Per the records of this test, what outcome belongs to C[N+]12C=CC=C1C(N1CCCC1)c1scc(-c3ccccc3)c12 (stereo not drawn) ?
NO

Hi team, can someone confirm the assay call for Cn1c(CCC#N)nc2ccc(Br)cc2c1=O ?
NO

Record request — test call for Cc1cc2c(=O)cc(-c3ccc(C(=O)O)cc3)oc2c(C(N)=O)c1C
NO

For CN1CCN(c2ccc3nc(C4=C(O)C(=O)c5c(nc(CCl)n5C)C4=O)[nH]c3n2)CC1 , what call appears in the results of this test?
NO

Further cases:
Dear colleague, could you share the recorded outcome for O=C(Nc1ccccc1)OCCN=C1c2ccccc2CCc2ccccc21 when you have a moment?
NO

What outcome does the record of this test show for c1ccc(/N=C(\N2CCOCC2)N(CCN2CCOCC2)c2ccccc2)cc1 ?
NO

Could you check what this test reported for O=C(NC(Cc1c[nH]cn1)C(=O)N1CCCC1)C1CCCC1 (stereo not drawn) ?
NO

Please indicate how the test categorized CCOC(=O)c1cc(C)nc2c1c(=O)n(-c1ccccc1)c(=O)n2CCCCN1CCN(c2ncccn2)CC1 .
NO

Recorded call for CN(CC(=O)O)S(=O)(=O)c1ccc(F)cc1 ?
NO

----------
Reported GI50 values are given for each entry in this list.
System: M14
Assay: NCI tumour cell line growth inhibition, 48 h
The source made the active and inactive calls. No stated cut-off is given here; in the data, active = GI50 up to about 1.1 µM and inactive = higher.

Below, each entry is followed by its recorded GI50 result.
Check the records and state GI50 for CC[C@@H](O)C[C@H]1CCC[C@@]2(C[C@@H]3OC(=O)/C=C/[C@@](C)(O)[C@@H](O)[C@H](C)[C@@H](O)[C@H](OC4CCC(N(C)C)C(C)O4)[C@@H](O)[C@](C)(O)CCCCC/C=C/[C@@H]4CC(C)(C)O[C@@]4(O)C[C@H](O2)[C@H]3C)O1 (some centres undefined)
1.85 µM (inactive)

Specify measured GI50 for O=c1c(Cc2cccc(Cc3c(O)oc4ccccc4c3=O)c2)c(O)oc2ccccc12 .
> 100 µM (inactive)

***
In one line, give reported GI50 of the entry O=C1OC(c2ccccc2)C2CC3CC4(CCC3CN12)OCCO4 (centres undefined) .
> 100 µM (inactive)

// Input: CCCN(CCCCN1C(=O)c2ccccc2C1=O)CC1COc2ccccc2O1 (centres undefined) . Output its GI50 only.
> 100 µM (inactive)

Indicate the recorded GI50 value for this compound: CCC(=O)N1C(=O)OCC1C(C)C (centres undefined)
> 100 µM (inactive)

# return recorded GI50 for entry C=CCN1CCN([C@H](c2ccc(C(=O)N(CC)CC)cc2)c2cccc(OC)c2)CC1
> 25 µM (inactive)

Using the record for CC(=O)OC1COC(n2nc(/C=C/c3ccc(Cl)cc3)c(=O)n(/N=C/c3ccccc3)c2=S)C(OC(C)=O)C1OC(C)=O (centres undefined) , state its measured GI50.
> 100 µM (inactive)

Check the records and state GI50 for Clc1ncc(C(Cl)(Cl)Cl)nc1-c1ccccc1
2.23 µM (inactive)

Identify GI50 associated with the compound N#Cc1c(NC(=S)Nc2ccc(Cl)cc2)sc2c1CCN(N1CCc3c(sc(NC(=S)Nc4ccc(Cl)cc4)c3C#N)C1)C2
11 µM (inactive)

Consider the compound CC(=O)OCC12C(OC(C)=O)C[C@@H](C)C3(CC(c4ccoc4)OC3=O)C1CCC(OC(C)=O)C21CO1 (some centres undefined) . State its measured GI50.
> 100 µM (inactive)

Supply GI50 value. Item: COc1cc2c(cc1OC)C1c3ccccc3CCN1CC2 (centres undefined)
45 µM (inactive)

----------
Test system: LXFL 529
Test: NCI tumour cell line growth inhibition, 48 h
The source made the active and inactive calls. Cut-off read from the data, not from the text of the source: active = GI50 up to about 1.1 µM and inactive = higher.
observed.property: GI50

Return GI50 for the following compound: O=C(Nc1nc2ccc([N+](=O)[O-])cc2s1)C(=O)C(C1OC(=O)c2ccccc21)[N+](=O)[O-] (stereo unspecified)
85.1 µM (inactive)

Give a short answer stating reported GI50 for COC1=CC(C)C2C[C@H]3O[C@H](O)C[C@H]4C(C)C(=O)C(O)C([C@@]2(C)C1=O)[C@@]34C (stereo partly specified) .
> 100 µM (inactive)

----------
List of GI50 values.
System: UACC-62
Experiment: NCI tumour cell line growth inhibition, 48 h
Calls of active or inactive are those of the source. Rule as the data show it: active = GI50 up to about 1.1 µM and inactive = higher.

Indicate the recorded GI50 value for this molecule: CC(=O)Oc1ccccc1C(=O)O
> 100 µM (inactive)

Kindly indicate its recorded GI50. Item: Cc1ccc(NC(=O)c2cccc([N+](=O)[O-])c2O)c([N+](=O)[O-])c1
12 µM (inactive)

Give GI50 for the following molecule: Cn1c2ccccc2c2ccc3c(c21)C(=O)C=CC3=O
12.1 µM (inactive)

Return GI50 (reported value) for this molecule: COC(=O)C(=O)C1(CCC(C)=O)c2ccccc2-c2ccccc21
97.7 µM (inactive)

In one line, give reported GI50 of the entry COc1cccc(/C=N/NC(=O)CSCC(=O)N/N=C/c2cccc(OC)c2OC)c1OC .
> 100 µM (inactive)

Please look at this molecule and report its GI50: O=C1C2C(C(=O)N1OS(=O)(=O)c1ccccc1)N(Cc1ccccc1)C(=O)N2Cc1ccccc1 (stereo unspecified)
> 100 µM (inactive)

----------
Tested on: SF-268
Assay: NCI tumour cell line growth inhibition, 48 h
Calls of active or inactive are those of the source. Rule as the data show it: active = GI50 up to about 1.1 µM and inactive = higher.
observed.property: GI50

Look up and state reported GI50 for CC1CCCc2c1c1ccc3c(O)cccc3c1oc2=O (configuration not stated)
17.3 µM (inactive)

Read the entry COc1cc(C2C(C(=O)Nc3cc(F)c(F)cc3F)=C(C)NC(C)=C2C(=O)Nc2cc(F)c(F)cc2F)ccc1O and write its reported GI50.
15 µM (inactive)

Give the value of GI50 reported for the following: C[C@H]1S[C@H](c2c(F)cccc2F)n2c1nc1ccccc12
60.5 µM (inactive)

In one line, give reported GI50 of the entry O=S1(=O)OCCOS(=O)(=O)C1I .
92.5 µM (inactive)

In one line, give reported GI50 of the entry NC(=S)NNc1c([N+](=O)[O-])cnn(-c2ccccc2)c1=O .
21.1 µM (inactive)

Annotate the molecule Cc1ccc(-c2nc3ccccc3c(=O)n2NCC2(O)OCC(O)C(O)C2O)cc1 (configuration not stated) with its measured GI50.
> 100 µM (inactive)

From here, focus on the item given below.
Report GI50 for OCC(O)C(O)C(O)c1nnn[nH]1 (configuration not stated)
> 100 µM (inactive)

----------
System: T47D
Assay: NCI tumour cell line growth inhibition, 48 h
The source made the active and inactive calls. Cut-off read from the data, not from the text of the source: active = GI50 up to about 1.1 µM and inactive = higher.
Reply using exactly one outcome from Y = active, N = inactive

Would you mind telling me which call this test gave c1cc(-c2ccc(-c3ccsc3)s2)cs1 ?
N

Dear all, I need the recorded test outcome for Cc1ccc([S+]([O-])(=Nc2ccccc2)C(C(C)C)C(C)(C)Cl)cc1 (stereo not drawn) , thank you.
N

// return assay outcome for COc1ccc(/C=N/n2c(-c3ccccc3)n[nH]c2=O)cc1
N

---
I'd appreciate the recorded outcome for COc1ccc(CNc2nc(NC3CCCCC3)nc(NC3CCCCC3)n2)cc1 from this test.
N

Identify the outcome logged in this assay for the compound shown: Oc1cc(Br)cc2cc(Br)cnc12
N

Which result was noted for this compound in the test: C=C(Cl)C(Cl)(CBr)CCC(Cl)C(C)(C)Cl (stereo not drawn)
Y

Given COc1cccc(/C=N/NC(=O)CSCC(=O)N/N=C/c2cccc(OC)c2OC)c1OC , state the outcome it received in this test.
N

// outcome(item) with item = COC(=O)C(Cc1nc2ccccc2nc1O)C(=O)C(=O)Nc1cc(C(F)(F)F)ccc1Cl (stereo not drawn)
N

Dear all, I need the recorded test outcome for Cc1ccc(S(=O)(=O)Nc2ccccc2C(=O)c2ccc(C)c(C)c2)cc1 , thank you.
N

----------
Tested on: T47D
Experiment: NCI tumour cell line growth inhibition, 48 h
Activity calls are given as the source filed them. Cut-off read from the data, not from the text of the source: active = GI50 up to about 1.1 µM and inactive = higher.
Bench note: report the call from YES = active, NO = inactive

Lab log entry: Oc1ccc(/N=N/c2ccc(Cl)cc2)cc1 — outcome as called in the assay?
NO

Write down the call the test reported for this compound. Item: CN(CCO)CCC1COc2ccccc2O1 (stereo not drawn)
NO

For this compound, state the assay outcome: C=C(CCC/C(C)=C/C=C/[C@]1(C)CCCc2ccoc21)CC(=O)O
NO

Record request — test call for COC(=O)[C@H](Cc1c[nH]c2ccccc12)NC(=O)c1ccccc1I
NO

Dear colleague, could you share the recorded outcome for C[C@@H](CC(=O)OCc1ccccc1)OC1OC(COC(=O)C(C)(C)C)C(OC(=O)C(C)(C)C)C(OC(=O)C(C)(C)C)C1OC(=O)C(C)(C)C (stereo partly drawn) when you have a moment?
NO

Tell me the recorded outcome of this test for CC[C@@H](O)C[C@H]1CCC[C@@]2(C[C@@H]3OC(=O)/C=C/[C@@](C)(O)[C@@H](O)[C@H](C)[C@@H](O)[C@H](OC4CCC(N(C)C)C(C)O4)[C@@H](O)[C@](C)(O)CCCCC/C=C/[C@@H]4CC(C)(C)O[C@@]4(O)C[C@H](O2)[C@H]3C)O1 (stereo partly drawn) .
YES

Further cases:
So what was the verdict on Cc1nnc2cc(C(=O)O)c3ccccc3n2c1=O in this test?
NO

Recorded call for O=C1OC(c2ccco2)=N/C1=C\c1cccc([N+](=O)[O-])c1 ?
NO
